So I've got a bunch of sequences here, and I need their binding signal values.
Biological target: FOXC2 DBD WT (UniProt Q99958 72-172)
Sequence: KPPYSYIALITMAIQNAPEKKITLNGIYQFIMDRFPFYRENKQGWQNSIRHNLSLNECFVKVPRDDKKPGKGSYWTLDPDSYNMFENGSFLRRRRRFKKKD
Test: SELEX-seq (GST pull-down, four rounds, 16-nt random library); pH 7.0; 20 mM HEPES, 140 mM KCl, 0.05 mM TCEP-HCl, pH 7.0, room temperature, 30 min; 2.5 uM GST-FOXC2 DBD, 0.25 uM DNA library; high values mean tight binding
Conditions: protein: recombinant; tags: N-terminal GST (pGEX-6P-2); dsDNA, one strand shown
Whole data set: some 1,100 sequences, median “relative enrichment” near 0.38, cut for the highest 2% near 0.66. Many of the other results were omitted from the sample, so the highest values are more common in it than they were.
Answers are plain numbers, in relative enrichment.

record_sequence=ACCATG experimental_target="FOXC2 DBD WT (UniProt Q99958 72-172)" numeric_value=0.559
record_sequence=ATCTTA experimental_target="FOXC2 DBD WT (UniProt Q99958 72-172)" numeric_value=0.332
record_sequence=ACCTTA experimental_target="FOXC2 DBD WT (UniProt Q99958 72-172)" numeric_value=0.322
record_sequence=TTACAA experimental_target="FOXC2 DBD WT (UniProt Q99958 72-172)" numeric_value=0.36
record_sequence=CTCTTC experimental_target="FOXC2 DBD WT (UniProt Q99958 72-172)" numeric_value=0.799
record_sequence=ACAGAG experimental_target="FOXC2 DBD WT (UniProt Q99958 72-172)" numeric_value=0.418

Hey, quick one: what's binding signal for each of these?
1. TCTTCT
2. AAATGG
3. ATGTTC

Key:
0.66
0.353
0.304

Hey, quick one: what's binding signal for each of these?
1. TACACC
2. TCACAA
3. ACGACT
4. ACTTCT
5. ATCTTG
6. TTCTCT
7. ATCAAT

Key:
0.418
0.332
0.561
0.502
0.318
0.453
0.463

Hey, quick one: what's binding signal for each of these?
1. TCTCTA
2. TACCCT
3. ATGCTA
4. TACCCA

Key:
[0.45, 0.504, 0.343, 0.526]

Hey, quick one: what's binding signal for each of these?
1. AAACCG
2. TGAACA

Key:
0.336
0.291

###

Molecular target: FOXC2 DBD WT (UniProt Q99958 72-172)
Sequence: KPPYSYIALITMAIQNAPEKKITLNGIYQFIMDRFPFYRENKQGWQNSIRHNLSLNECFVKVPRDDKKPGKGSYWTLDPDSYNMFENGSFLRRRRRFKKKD
Assay: SELEX-seq (GST pull-down, four rounds, 16-nt random library); pH 7.0; 20 mM HEPES, 140 mM KCl, 0.05 mM TCEP-HCl, pH 7.0, room temperature, 30 min; 2.5 uM GST-FOXC2 DBD, 0.25 uM DNA library; high values mean tight binding
Conditions: protein: recombinant; tags: N-terminal GST (pGEX-6P-2); dsDNA, one strand shown
Over roughly 1,100 sequences, “relative enrichment” has its median near 0.38; the highest 2% begin near 0.66. The sample as a whole holds a higher share of the highest values than the screen did.
assay.endpoint: binding signal (relative enrichment)
Give bare numbers, in relative enrichment.

Sample records with binding signal:
record_sequence=CCACTG numeric_value=0.649
record_sequence=ATCTCT numeric_value=0.485
record_sequence=CAGTAA numeric_value=0.415
record_sequence=ACTTCA numeric_value=0.453
record_sequence=CCATTA numeric_value=0.286

Hey, quick one: what's binding signal for each of these?
1. ATACTC
2. AAAGAT
3. CAATAA
4. CATGCA
5. AATGAT
6. GCTACA

Key:
0.432
0.356
0.513
0.513
0.314
0.348

Hey, quick one: what's binding signal for each of these?
1. GCAACA
2. TGACAA
3. CTGCAT
4. ATTTAC

Key:
1: 0.23; 2: 0.337; 3: 0.524; 4: 0.56
